Let's look at some binders and their measured Mean IC50 (nM), CD4+ T cell proliferation.
- testTarget: T1, full-length human CD86 on HEK293 cells (human, UniProt P42081 24-329)
- T1 sequence: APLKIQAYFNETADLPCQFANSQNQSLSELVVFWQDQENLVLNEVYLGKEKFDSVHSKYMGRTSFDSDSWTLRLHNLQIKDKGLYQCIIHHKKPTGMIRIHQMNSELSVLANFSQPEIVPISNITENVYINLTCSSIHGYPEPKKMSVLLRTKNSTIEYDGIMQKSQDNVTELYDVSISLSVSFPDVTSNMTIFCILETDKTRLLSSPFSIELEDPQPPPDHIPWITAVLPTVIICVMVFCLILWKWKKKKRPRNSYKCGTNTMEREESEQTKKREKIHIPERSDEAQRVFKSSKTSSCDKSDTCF
- protocolNotes: cell-based or functional assay
The answer is to be given in nM; state only the numeric part.

binder | readoutUnits | recordedResult
D3-69-IgG2 (Fc fusion) MHVAQPAVVLASSRGIASFVCEYESPGKANEIRVTVLRQADSQVTEVCAMTYMKGDELTFLDDPSCTGTFSGNQVNLTIQGLRAMDTGLYICKVELMYPPPYYEGIGNGTQIYVIDPEPCPDSDERKCCVECPPCPAPPVAGPSVFLFPPKPKDTLMISRTPEVTCVVVDVSHEDPEVQFNWYVDGVEVHNAKTKPREEQFNSTFRVVSVLTVVHQDWLNGKEYKCKVSNKGLPAPIEKTISKTKGQPREPQVYTLPPSREEMTKNQVSLTCLVKGFYPSDIAVEWESNGQPENNYKTTPPMLDSDGSFFLYSKLTVDKSRWQQGNVFSCSVMHEALHNHYTQKSLSLSPG | nM | 0.03

Query: Note Mean IC50 (nM), CD4+ T cell proliferation for the binder shown: D3-50-IgG2 (Fc fusion) MHVAQPAVVLASSRGIASFVCEYASPGKANEVRVTVLRQADSQVTEVCAMTYMKGDELTFLDDPICTGTFSGNQVNLTIQGLRAMDTGLYICKVELMYPPPYYLGIGNGTQIYVIDPEPCPDSDERKCCVECPPCPAPPVAGPSVFLFPPKPKDTLMISRTPEVTCVVVDVSHEDPEVQFNWYVDGVEVHNAKTKPREEQFNSTFRVVSVLTVVHQDWLNGKEYKCKVSNKGLPAPIEKTISKTKGQPREPQVYTLPPSREEMTKNQVSLTCLVKGFYPSDIAVEWESNGQPENNYKTTPPMLDSDGSFFLYSKLTVDKSRWQQGNVFSCSVMHEALHNHYTQKSLSLSPG
Result: 0.06
